Reported log10 minimal effective dose values are given for each entry in this list.
Species on record: Rattus norvegicus
Assay: Minimum Effective Dose (MED) was measured using Food-Conflict test in rats
Assay type: functional
Conditions: read-out: MED
Answers are given as log10 of minimal effective dose in mg/kg.

get_value(item= `CCCc1c(SC)nc2nc(C(=O)c3ccccc3)cn2c1CC` , readout=log10 minimal effective dose) returns 1.00

Others:
get_value(item= `CCOC(=O)N1Cc2c(OC)nc3nc(C(=O)c4ccccc4)cn3c2C1` , readout=log10 minimal effective dose) returns 1.70

* * *

Species on record: Rattus norvegicus
Assay: Minimum Effective Dose (MED) was measured using Food-Conflict test in rats
Format: functional
Conditions: read-out: MED
measurement_label: minimal effective dose (mg/kg)
The reply should contain only the number, in mg/kg.

get_value(item= `CCSc1nc2nc(C(=O)c3ccccc3)cn2c2c1CCC2` , readout=minimal effective dose) returns 50

get_value(item= `CSc1nc2nc(C(=O)c3ccccc3)cn2c2c1CCC2` , readout=minimal effective dose) returns 2

get_value(item= `CCCC(=O)c1cn2c(cc(OC)c3cc(CC)ccc32)n1` , readout=minimal effective dose) returns 20

get_value(item= `CCCCc1ccc2c(c1)c(OC)cc1nc(C(=O)c3ccccc3)cn12` , readout=minimal effective dose) returns 10

Could you now look at the following compound, please?
get_value(item= CNC1=Nc2ccc(Cl)cc2C(c2ccccc2)=[N+]([O-])C1 [CHLORDIAZEPOXIDE] , readout=minimal effective dose) returns 5
